Record form. Attribute: pKd. Fill in for each entry.
Target: NOS1, P29475
Sequence (P29475 9-101): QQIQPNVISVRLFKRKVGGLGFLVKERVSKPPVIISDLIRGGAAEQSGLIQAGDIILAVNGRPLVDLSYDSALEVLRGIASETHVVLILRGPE
Experiment: holdup assay
Design: key: below the threshold = too weak to quantify, mostly under pKd 3.1 to 4
Settings: plain residues with an end cap or a label only (N-terminal biotin on a linker: ado-ado)
Give bare numbers.

Known pKd results, listed for orientation:
>>> measured("APIAGFSSFV [SDK2, Q58EX2]")
3.53
>>> measured("IDESKKEWLI [CNTNAP2, Q9UHC6]")
4.21
>>> measured("LKDDELKTKL [SLCO1A2, P46721]")
3.5
>>> measured("TNSRHGETTV [FZD2, Q14332]")
3.79
>>> measured("TRKRSGEAAV [PFKM, P08237]")
4.16
>>> measured("AQRARSPSDV [GPR12, P47775]")
3.75
>>> measured("NVYGIESVKI [GRIA2, P42262]")
3.71
>>> measured("ARGPPRESEV [FAM110D, Q8TAY7]")
3.77
>>> measured("ARESQKVSHV [FAM110B, Q8TC76]")
3.55
>>> measured("MQHQRTHTRV [ZSCAN30, Q86W11]")
3.91

Could you report pKd for every entry in the following list?
1. GTGYDRKDYV [CLDN3, O15551]
2. NISYRRESAI [KCNJ4, P48050]
3. GIKKITSTAL [RPS6KA3, P51812]
4. NTANRRTTPV [CACNG2, Q9Y698]
5. RDPPAEWTRV [PTPN18, Q99952]
6. DTKNYKQTSV [CRIPT, Q9P021]
7. PSVGSKKTVL [REELD1, A0A1B0GV85]
8. GEDRSPPTAL [MKNK1, Q9BUB5]

Reply:
1. 4.45
2. 3.62
3. 4.03
4. 3.99
5. 3.66
6. 3.63
7. 3.64
8. 3.8

Could you report pKd for every entry in the following list?
1. TISFTQTSQF [SLC1A1, P43005]
2. NIAESLESLV [PTPRZ1, P23471]
3. SLNANEVEWF [RNF130, Q86XS8]
4. MHIQEKGFHV [EPHA6, Q9UF33]
5. KKMLQRRTLL [OR8G1, Q15617]
6. DPAESMESLV [PTPRG, P23470]

Reply:
1. 3.53
2. 3.92
3. 4
4. 3.62
5. 3.92
6. 3.74
